tested-system: hCB1R (Homo sapiens)
Construct: host or cells: CHO
Sequence (P21554 whole entry): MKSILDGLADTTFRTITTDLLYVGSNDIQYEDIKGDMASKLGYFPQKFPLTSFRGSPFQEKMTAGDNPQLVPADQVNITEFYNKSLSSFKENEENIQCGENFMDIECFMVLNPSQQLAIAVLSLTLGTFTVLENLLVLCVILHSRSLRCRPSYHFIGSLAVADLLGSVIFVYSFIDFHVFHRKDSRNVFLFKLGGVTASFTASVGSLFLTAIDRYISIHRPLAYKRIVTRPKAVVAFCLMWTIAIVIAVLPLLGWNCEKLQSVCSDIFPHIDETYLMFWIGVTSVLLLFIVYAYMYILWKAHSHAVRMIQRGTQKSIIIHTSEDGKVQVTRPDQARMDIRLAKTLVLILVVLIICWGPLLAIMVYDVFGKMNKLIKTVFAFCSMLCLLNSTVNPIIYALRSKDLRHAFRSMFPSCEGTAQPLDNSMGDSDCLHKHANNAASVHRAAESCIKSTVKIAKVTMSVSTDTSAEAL
experiment-description: cell-based
Assay type: cell-based
Each entry below carries its reported pEC50 ± SEM β-AR recruitment hCB1R.

Take a look at these entries with their results.
{"compound": "CN1CCCCC1Cn1cc(C(=O)c2cc([N+](=O)[O-])ccc2I)c2ccccc21 (racemic) [(rac)-AM1241]", "result": "< 5"}
{"compound": "Cc1ccc2c(c1)Cc1c(C(=O)NN3CCCCC3)nn(-c3ccc(Cl)cc3Cl)c1-2 [Gp-1a]", "result": "< 5"}

QUERY: Please look up its pEC50 ± SEM β-AR recruitment hCB1R: CN1CCCC[C@H]1Cn1cc(C(=O)c2cc([N+](=O)[O-])ccc2I)c2ccccc21 [(S)-AM1241]
RESULT: < 5

====

tested-system: Rat recombinant TRPA1 (Rattus norvegicus, UniProt Q6RI86)
Sequence (Q6RI86 whole entry): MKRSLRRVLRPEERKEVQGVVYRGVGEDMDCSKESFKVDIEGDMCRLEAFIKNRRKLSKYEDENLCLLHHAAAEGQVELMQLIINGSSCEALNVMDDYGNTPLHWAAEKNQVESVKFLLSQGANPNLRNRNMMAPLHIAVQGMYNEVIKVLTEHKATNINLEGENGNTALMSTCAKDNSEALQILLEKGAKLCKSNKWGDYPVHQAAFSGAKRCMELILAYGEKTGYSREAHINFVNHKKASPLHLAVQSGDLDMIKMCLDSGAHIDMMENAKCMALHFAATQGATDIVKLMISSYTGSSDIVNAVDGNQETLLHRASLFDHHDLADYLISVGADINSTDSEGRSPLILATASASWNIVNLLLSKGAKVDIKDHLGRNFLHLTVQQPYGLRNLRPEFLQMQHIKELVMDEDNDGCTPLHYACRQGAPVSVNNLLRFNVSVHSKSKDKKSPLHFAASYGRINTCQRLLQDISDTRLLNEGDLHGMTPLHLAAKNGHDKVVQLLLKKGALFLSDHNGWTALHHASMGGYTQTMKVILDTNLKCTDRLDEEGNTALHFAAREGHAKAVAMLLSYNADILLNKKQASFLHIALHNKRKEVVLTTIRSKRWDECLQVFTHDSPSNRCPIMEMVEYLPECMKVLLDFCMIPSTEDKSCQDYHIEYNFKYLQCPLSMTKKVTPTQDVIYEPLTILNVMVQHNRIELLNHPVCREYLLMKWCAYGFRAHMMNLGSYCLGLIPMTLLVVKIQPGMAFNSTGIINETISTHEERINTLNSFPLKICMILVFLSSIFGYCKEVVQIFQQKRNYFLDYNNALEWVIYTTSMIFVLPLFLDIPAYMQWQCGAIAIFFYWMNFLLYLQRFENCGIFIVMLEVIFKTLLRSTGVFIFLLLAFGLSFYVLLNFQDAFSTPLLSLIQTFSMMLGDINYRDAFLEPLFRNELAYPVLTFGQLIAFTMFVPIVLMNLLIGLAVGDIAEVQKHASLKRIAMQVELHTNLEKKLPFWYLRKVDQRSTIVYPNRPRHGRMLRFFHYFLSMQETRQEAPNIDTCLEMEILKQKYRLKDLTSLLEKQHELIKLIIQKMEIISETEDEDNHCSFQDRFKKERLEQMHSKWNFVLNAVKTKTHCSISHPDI
experiment-description: cell-based
condition: vs AITC 100μM, 5 min pre-incubation; read-out: TRPA1 IC50 for antagonism or desensitization
IC50 by entry:

Please review the following examples before continuing.
{"molecule": "CCCCCCC(C)(C)c1cc(OC)c(C2=C[C@H]3CC[C@]2(CO)C3(C)C)c(OC)c1", "tested-system": "Rat recombinant TRPA1 (Rattus norvegicus, UniProt Q6RI86)", "result": "> 100 µM"}
{"molecule": "CCCCCCC(C)(C)c1cc(OC)c([C@@H]2C=C(CO)[C@@H]3C[C@H]2C3(C)C)c(OC)c1", "tested-system": "Rat recombinant TRPA1 (Rattus norvegicus, UniProt Q6RI86)", "result": "> 100 µM"}

QUERY: Reported IC50 for CN1CCCC[C@@H]1Cn1cc(C(=O)c2cc([N+](=O)[O-])ccc2I)c2ccccc21 [(R)-AM1241] : what is it?
RESULT: > 50 µM

====

tested-system: Rat recombinant TRPM8 (Rattus norvegicus)
Construct: expressed in transfected cells; host or cells: HEK293 (TRPM8-HEK-293, gift from Mario van der Stelt)
Sequence (Q8R455 whole entry): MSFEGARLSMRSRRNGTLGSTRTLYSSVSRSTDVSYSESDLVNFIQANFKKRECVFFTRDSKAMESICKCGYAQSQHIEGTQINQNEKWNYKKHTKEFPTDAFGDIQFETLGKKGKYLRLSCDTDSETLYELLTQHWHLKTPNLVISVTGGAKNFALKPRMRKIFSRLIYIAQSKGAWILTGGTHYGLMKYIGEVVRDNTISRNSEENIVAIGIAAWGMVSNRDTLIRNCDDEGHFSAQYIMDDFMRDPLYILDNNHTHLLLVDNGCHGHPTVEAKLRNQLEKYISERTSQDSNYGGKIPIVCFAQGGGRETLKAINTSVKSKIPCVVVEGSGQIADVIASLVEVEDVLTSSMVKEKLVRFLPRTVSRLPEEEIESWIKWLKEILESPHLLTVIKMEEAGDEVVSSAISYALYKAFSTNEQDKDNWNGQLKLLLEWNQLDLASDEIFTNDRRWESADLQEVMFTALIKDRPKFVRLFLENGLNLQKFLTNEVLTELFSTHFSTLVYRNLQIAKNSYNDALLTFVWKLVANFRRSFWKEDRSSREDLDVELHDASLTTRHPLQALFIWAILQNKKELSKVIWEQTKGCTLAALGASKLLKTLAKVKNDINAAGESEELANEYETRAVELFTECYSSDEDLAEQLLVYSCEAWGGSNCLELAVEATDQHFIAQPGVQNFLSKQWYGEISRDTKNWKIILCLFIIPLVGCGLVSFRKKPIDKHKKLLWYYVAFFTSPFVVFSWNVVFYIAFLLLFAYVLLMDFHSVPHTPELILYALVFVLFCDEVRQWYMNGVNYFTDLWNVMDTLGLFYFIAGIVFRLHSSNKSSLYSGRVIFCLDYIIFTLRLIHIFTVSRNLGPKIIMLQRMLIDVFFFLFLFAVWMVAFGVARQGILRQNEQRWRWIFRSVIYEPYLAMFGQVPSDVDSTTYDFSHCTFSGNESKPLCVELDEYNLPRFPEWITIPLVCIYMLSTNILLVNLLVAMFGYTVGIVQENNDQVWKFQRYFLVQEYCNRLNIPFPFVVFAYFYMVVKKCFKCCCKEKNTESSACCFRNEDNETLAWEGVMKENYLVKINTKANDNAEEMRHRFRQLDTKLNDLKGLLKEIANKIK
experiment-description: TRP channel [Ca2+]i assay
Format: cell-based
condition: vs icilin […]; read-out: TRPM8 IC50 for antagonism of icilin
pIC50: −log10 of the molar value.
readout-label: pIC50

{"compound": "CCCCCCC(C)(C)c1cc(OC)c(C2=C[C@H]3CC[C@]2(CO)C3(C)C)c(OC)c1 [HU910]", "pIC50": "< 4.00"}
{"compound": "CN1CCCC[C@H]1Cn1cc(C(=O)c2cc([N+](=O)[O-])ccc2I)c2ccccc21 [(S)-AM1241]", "pIC50": "< 4.30"}
{"compound": "Cc1ccc2c(c1)Cc1c(C(=O)NN3CCCCC3)nn(-c3ccc(Cl)cc3Cl)c1-2 [Gp-1a]", "pIC50": "< 4.30"}

We next turn to a different compound, shown below.
QUERY: Returns the measured pIC50 for the input compound. Input: CN1CCCC[C@@H]1Cn1cc(C(=O)c2cc([N+](=O)[O-])ccc2I)c2ccccc21 [(R)-AM1241]
RESULT: < 4.30

====

Each item that follows carries a reported LogR GTPγS.
tested-system: UniProtKB P34972
Sequence (P34972 whole entry): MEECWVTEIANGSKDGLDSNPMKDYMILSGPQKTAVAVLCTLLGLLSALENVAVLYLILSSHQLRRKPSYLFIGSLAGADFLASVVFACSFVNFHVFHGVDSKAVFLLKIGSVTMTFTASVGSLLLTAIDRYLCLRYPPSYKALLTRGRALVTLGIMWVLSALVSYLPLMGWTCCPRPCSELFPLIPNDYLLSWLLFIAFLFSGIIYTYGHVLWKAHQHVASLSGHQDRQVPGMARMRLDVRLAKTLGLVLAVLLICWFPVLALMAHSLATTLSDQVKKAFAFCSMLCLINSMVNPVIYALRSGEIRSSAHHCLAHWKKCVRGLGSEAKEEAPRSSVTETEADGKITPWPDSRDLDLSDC
Design: expressed in transfected cells; host or cells: Flp-In-293 (Invitrogen #R750-07), pcDNA5/FRT
condition: hCB2R
Give the value as a plain number.

The following compounds have reported results that may help.
{"compound": "CN1CCCC[C@H]1Cn1cc(C(=O)c2cc([N+](=O)[O-])ccc2I)c2ccccc21 [(S)-AM1241]", "LogR GTPγS": 6.9}
{"compound": "CCCCCCC(C)(C)c1cc(OC)c(C2=C[C@H]3CC[C@]2(CO)C3(C)C)c(OC)c1", "LogR GTPγS": 6.82}

Shift focus to the following entry.
QUERY: Recorded LogR GTPγS for CCCCCCC(C)(C)c1cc(OC)c([C@@H]2C=C(CO)[C@@H]3C[C@H]2C3(C)C)c(OC)c1 , please?
RESULT: 6.95
